- system-under-test: T1, recombinant human IL-7Rα-His6-Fc (human, UniProt P16871 21-239)
- T1 construct: also called hIL-7R; not shown: His6 tag; Fc (captured by anti-human IgG Fc)
- T1 chain: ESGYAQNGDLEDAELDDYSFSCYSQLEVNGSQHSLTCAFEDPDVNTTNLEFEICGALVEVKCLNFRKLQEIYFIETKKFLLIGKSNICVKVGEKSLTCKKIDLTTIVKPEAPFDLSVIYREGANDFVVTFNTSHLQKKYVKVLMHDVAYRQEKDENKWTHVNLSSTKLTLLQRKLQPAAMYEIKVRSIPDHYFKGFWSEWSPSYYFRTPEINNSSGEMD
- test-summary: IL-7/IL-7Rα-His6-Fc ELISA; inhibition of IL-7 binding to IL-7R
Attribute: pEC50
The quantity pEC50 is defined as the negative base-10 logarithm of the molar concentration.

// below: answered binders
* ID-A29U (VHH, V7R-2E9 with E44G, R45L, F47W, Q65K, K87R) VHH: EVQLVESGGGLVQAGGSLRLSCESSISTFSSDAMGWFRQAPGKGLEWLAAIGWSGAVTHYSDSVKGRFTISRDNAKNTVYLQMNSLRSEDTGRYYCAEDYDTDVWQYWGQGTQVTVSS | 9.32
* ID-A38U (VHH, V7R-2E9 with E44G, Q65K, S88A) VHH: EVQLVESGGGLVQAGGSLRLSCESSISTFSSDAMGWFRQAPGKGREFLAAIGWSGAVTHYSDSVKGRFTISRDNAKNTVYLQMNSLKAEDTGRYYCAEDYDTDVWQYWGQGTQVTVSS | 9.10

Form field: reported pEC50 of ID-A28U (VHH, V7R-2E9 with E44G, R45L, F47W, Q65K, S88A) VHH: EVQLVESGGGLVQAGGSLRLSCESSISTFSSDAMGWFRQAPGKGLEWLAAIGWSGAVTHYSDSVKGRFTISRDNAKNTVYLQMNSLKAEDTGRYYCAEDYDTDVWQYWGQGTQVTVSS
9.34

These measurements were taken from patent US20220363769A1.
